BTK enzyme (Homo sapiens, UniProt Q06187): reported IC50 for various molecules.
Sequence (Q06187 whole entry): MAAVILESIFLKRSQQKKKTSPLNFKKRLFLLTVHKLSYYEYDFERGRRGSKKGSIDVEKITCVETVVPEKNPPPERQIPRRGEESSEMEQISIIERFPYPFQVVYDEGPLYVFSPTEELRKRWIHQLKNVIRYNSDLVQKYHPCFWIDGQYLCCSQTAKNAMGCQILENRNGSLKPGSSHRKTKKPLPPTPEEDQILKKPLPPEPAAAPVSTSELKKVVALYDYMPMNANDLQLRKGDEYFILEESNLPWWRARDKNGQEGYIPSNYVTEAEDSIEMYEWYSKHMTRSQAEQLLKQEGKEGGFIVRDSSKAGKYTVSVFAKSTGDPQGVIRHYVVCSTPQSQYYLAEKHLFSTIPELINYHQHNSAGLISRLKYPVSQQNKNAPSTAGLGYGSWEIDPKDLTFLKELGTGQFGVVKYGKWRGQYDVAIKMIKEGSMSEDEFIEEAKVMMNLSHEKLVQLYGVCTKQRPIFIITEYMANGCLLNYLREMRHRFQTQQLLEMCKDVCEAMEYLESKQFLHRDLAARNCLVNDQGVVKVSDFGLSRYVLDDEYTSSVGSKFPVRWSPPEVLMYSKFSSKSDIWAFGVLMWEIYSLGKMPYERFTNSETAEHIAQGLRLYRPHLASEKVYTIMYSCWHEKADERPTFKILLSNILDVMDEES

Take a look at these entries with their results.
• COCCc1cc(-c2ccnc(Nc3cnn4c3CCC4)n2)ccc1CNC(=O)N1CC(OC(C)(C)C)C1 = < 10 nM
• Cc1cc(-c2ccnc(N)n2)ccc1CNC(=O)c1cc2c(s1)CNCC2 = 100 to 999 nM
• Cc1cc(-c2ccnc(Nc3cnn(C)c3C)n2)ccc1CNC(=O)c1cnc(C(C)(C)C)s1 = < 10 nM
• CC(C)OC1CN(C(=O)NC2CCCOc3cc(-c4ccnc(Nc5cnn(C)c5)n4)ccc32)C1 (centres unmarked) = < 10 nM
• Cc1cc(-c2cc(Nc3cc4n(n3)CCN(C)C4)ncn2)ccc1CNC(=O)N1CCC(C(C)(C)C)C1 (centres unmarked) = < 10 nM
• Cc1cc(-c2ccnc(N[C@@H](C)C3CCCCC3)n2)ccc1CNC(=O)c1cnc(C(C)(C)C)s1 = > 10000 nM
• Cc1cc(-c2ccnc(N[C@H](C)C3CCCCC3)n2)ccc1CNC(=O)c1cnc(C(C)(C)C)s1 = > 10000 nM

Next:
## Input Provide the documented IC50 with BTK enzyme (Homo sapiens, UniProt Q06187) as the system for "Cc1cc(-c2ccnc(N)n2)ccc1CNC(=O)c1nc2c(s1)CNCC2"
## Output 1000 to 10000 nM
